These entries and their values trace back to PubChem BioAssay.

Assay: reduced mouse 2C T cell binding to pMHC/ICAM-1 vesicles – MLPCN validation set, flow cytometry, LFA-1/ICAM-1 modulator project, pilot screen (AID 2523);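 note: mean PE anti-B7-1 fluorescence of CD8+ cells relative to row control; 100% = QL9-loaded vesicles with DMSO vehicle in the same plate row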
Settings: 2C mouse CD8+ T cells, at 7 µM, hits give low values
We begin with a simple list: items and their reported vesicle binding response.
Quick reminder: number only, in %, skip the unit.

[[record]]
molecule = "CC(/C=C1\\SC(=O)N(CCCC(=O)O)C1=O)=C\\c1ccccc1"
quantity_unit = "%"
observed_measurement = 161


Task: Need vesicle binding response of CCCCOC(=O)c1ccc(N)cc1 , thanks.
Result: 183

----------
Biological target: Beta-2 adrenergic receptor (Homo sapiens) (UniProt P07550)
Sequence (P07550 whole entry, looked up): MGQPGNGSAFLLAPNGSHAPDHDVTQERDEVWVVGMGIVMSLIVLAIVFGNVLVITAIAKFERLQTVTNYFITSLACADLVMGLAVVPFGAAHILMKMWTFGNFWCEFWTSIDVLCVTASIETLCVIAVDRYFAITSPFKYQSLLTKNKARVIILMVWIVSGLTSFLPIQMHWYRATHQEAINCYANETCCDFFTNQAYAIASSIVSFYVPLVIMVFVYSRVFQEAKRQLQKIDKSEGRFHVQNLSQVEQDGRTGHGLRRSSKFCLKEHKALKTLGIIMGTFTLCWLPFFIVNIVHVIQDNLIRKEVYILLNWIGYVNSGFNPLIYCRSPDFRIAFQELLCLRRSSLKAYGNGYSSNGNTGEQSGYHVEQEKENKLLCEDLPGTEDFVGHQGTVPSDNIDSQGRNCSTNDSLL
Test: agonist-induced loss of surface beta2AR – cell-based, FAP fluorogen, flow cytometry, validation set, pilot screen (AID 504459);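 note: agonist-driven loss of surface beta2AR via internalization measured by FAP dye flow cytometry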
Conditions: Am2.2-beta2AR cells, at 10 µM, hits give high values
Parameter: response. Scope: all listed entries.
Report the figure in % without appending any unit label.

[[record]]
compound = "COc1ccc(NC(=O)C2OC3OC(C)(C)OC3C3OC(C)(C)OC23)cc1 (configuration not stated)"
quantity_unit = "%"
observed_measurement = -8.79

[[record]]
compound = "Nc1ccc(S(=O)(=O)NC(=O)c2ccccc2)cc1"
quantity_unit = "%"
observed_measurement = -5.78

[[record]]
compound = "CCC(C)NCCOc1ccc(C(C)(C)c2ccccc2)cc1 (configuration not stated)"
quantity_unit = "%"
observed_measurement = 17.1

[[record]]
compound = "CC(=O)c1cc2c(cc1NC(=O)c1ccco1)OCCO2"
quantity_unit = "%"
observed_measurement = -30.9


Task: Any idea what response was measured for CC1(C)O[C@@H]2C[C@H]3[C@@H]4C[C@H](F)C5=CC(=O)C=C[C@]5(C)[C@@]4(F)[C@@H](O)C[C@]3(C)[C@]2(C(=O)CO)O1 ?
Result: 6.68

Task: Find the recorded response belonging to NCCCC(N)(C(=O)O)C(F)F (configuration not stated) and report it.
Result: 5.08

Task: Item under review: CCOc1ncnc2c1[nH]c1ccccc12 . Reported response?
Result: 14.8

Task: I have this compound here, CC(C)Oc1ccc2c(=O)c(-c3ccccc3)coc2c1 , and I need its recorded response.
Result: 1.13

Task: Value lookup for response; key = CC1=C/C(=N\N=C2\NC(=O)C(CC(=O)Nc3ccccc3F)S2)CC(C)(C)C1 (configuration not stated)
Result: -1.66

Task: Dear colleague, I am looking for the recorded response of the following compound: CN(C(=O)C(Cl)Cl)c1ccc(OC(=O)c2ccco2)cc1
Result: 5.41

Task: # response lookup, item O=c1cnn([C@@H]2O[C@H](CO)[C@@H](O)[C@H]2O)c(=O)[nH]1
Result: -10.1

Task: What does the data say about its response? Entry: COc1cc2[nH]c3c(=O)n(CCN4CCOCC4)cnc3c2cc1OC
Result: -0.47

----------
Assay: reduced mouse 2C T cell binding to pMHC/ICAM-1 vesicles – MLPCN validation set, flow cytometry, LFA-1/ICAM-1 modulator project, pilot screen (AID 2523);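 note: mean PE anti-B7-1 fluorescence of CD8+ cells relative to row control; 100% = QL9-loaded vesicles with DMSO vehicle in the same plate row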
Conditions: 2C mouse CD8+ T cells, at 7 µM, hits give low values
The label y is reserved for vesicle binding response strictly under 200%; n covers values equal to or above it.

Worked examples, 6 compounds total:
[[record]]
compound = "CN(C)CC/C=C1\\c2ccccc2COc2ccccc21"
category_label = "y"

[[record]]
compound = "Cc1ccc(/C=N/NC(=O)C2(C)CC2(Br)Br)cc1 (stereo not given)"
category_label = "y"

[[record]]
compound = "NS(=O)(=O)c1cc(C2(O)NC(=O)c3ccccc32)ccc1Cl (stereo not given)"
category_label = "n"

[[record]]
compound = "COc1ccc2oc(=O)c(C(=O)Nc3ccccc3-c3ccccc3)cc2c1"
category_label = "y"

[[record]]
compound = "Cn1c(Oc2ccc3c(c2)OCO3)nc2c1c(=O)n(Cc1ccccc1)c(=O)n2C"
category_label = "y"

[[record]]
compound = "CC(C)C[C@H]1C(=O)N2CCC[C@H]2[C@]2(O)O[C@](NC(=O)[C@@H]3C=C4c5cccc6[nH]c(Br)c(c56)CC4N(C)C3)(C(C)C)C(=O)N12 (stereo not given in full)"
category_label = "y"


Task: # check: vesicle binding response < 200% for FC(F)(F)c1ccc(-c2noc(CN3CCCN(C4CCCCC4)CC3)n2)cc1
Result: n

Task: Please state whether vesicle binding response is below 200% for CN(C)CCC(c1ccccc1)c1ccccn1 (stereo not given)
Result: y

Task: Say whether its vesicle binding response is strictly beneath 200%. Entry: Cc1cccc(-n2c(Cc3ccccc3)n[nH]c2=S)c1
Result: y

----------
Test: calorie-restriction mimetic ROS inhibitors, yeast – validation compound set, pilot screen (AID 2706);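 note: yeast exposed to compound for one week at 30 degrees C before staining; 100% = mean of all compound wells on the same plate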
Conditions: S. cerevisiae aging, superoxide DHE fluorescence; at 10 µM; hits give low values
Reported Endpoint: superoxide response (% of plate) (%)
Respond numerically; units are % and should not be typed.

Use the examples below as a reference point.
[[record]]
compound = "CC1(C)c2ccccc2N2CC(=O)NC21/C=C/c1ccco1 (stereo not given)"
observed_measurement = 109

[[record]]
compound = "Cn1nc(-c2ccc(Cl)cc2)nc2c(=O)n(C)c(=O)nc1-2"
observed_measurement = 79.2

[[record]]
compound = "CN(C)CC/C=C1\\c2ccccc2COc2ccccc21"
observed_measurement = 93.9

[[record]]
compound = "CC(=O)[C@@H]1[C@@H](C(=O)c2ccc(C)cc2)[C@]2(C(=O)Nc3ccccc32)[C@H]2C=Cc3cc(F)ccc3N12"
observed_measurement = 112


Could you now look at the following compound, please?
Task: Can you look up the measured superoxide response (% of plate) of COc1ccc(CC(=O)NCC2(c3ccc(OC)c(OC)c3)CCOCC2)cc1 for me?
Result: 102

----------
Entries and their measured response follow.
Target: Beta-2 adrenergic receptor (Homo sapiens) (UniProt P07550)
Experiment: agonist-induced loss of surface beta2AR – cell-based, FAP fluorogen, flow cytometry, validation set, pilot screen (AID 504459);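 note: agonist-driven loss of surface beta2AR via internalization measured by FAP dye flow cytometry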
Settings: Am2.2-beta2AR cells, at 10 µM, hits give high values
Reply numerically in %, unit not repeated.

[[record]]
compound = "CC(C[N+](C)(C)C)OC(N)=O (stereo not drawn)"
tgt = "Beta-2 adrenergic receptor (Homo sapiens) (UniProt P07550)"
reported_endpoint = "response"
observed_measurement = -16.4


Task: Please tell me: response of CSc1ccc(/C=N/N2CCN(Cc3ccc(C)cc3C)CC2)cc1 , system Beta-2 adrenergic receptor (Homo sapiens) (UniProt P07550)?
Result: 6.9

Task: Notebook: pull reported response for Beta-2 adrenergic receptor (Homo sapiens) (UniProt P07550), entry CC(=O)CSc1ncnc2c1cnn2-c1ccccc1
Result: 6.9

Task: Request body: readout response, system Beta-2 adrenergic receptor (Homo sapiens) (UniProt P07550), query Fc1ccccc1CNCCC(Cc1ccccc1)c1ccc2c(c1)OCO2 (stereo not drawn) . Return the value.
Result: 14

Task: Missing value: response, Beta-2 adrenergic receptor (Homo sapiens) (UniProt P07550), entry COc1ccc(C(=O)Oc2ccc3c(C)cc(=O)oc3c2C(C)=O)cc1 . Fill in?
Result: 2.26

Task: Record lookup: for Beta-2 adrenergic receptor (Homo sapiens) (UniProt P07550), what response belongs to CC(=O)Nc1ccc(CN2CCN(C3CCCCC3)C(CCO)C2)cc1 (stereo not drawn) ?
Result: -18.9

Task: Value wanted: response (Beta-2 adrenergic receptor (Homo sapiens) (UniProt P07550)) of entry COc1cccc(CN2C(=O)N(C(C)C)C(N(O)C(=O)NC(C)C)C2(C)C)c1OC (stereo not drawn)
Result: -7.26

Task: Please state recorded response (tested on Beta-2 adrenergic receptor (Homo sapiens) (UniProt P07550)) of CCOC(=O)c1c(C)oc2c1C(=O)c1ccccc1C2=O
Result: 3.7

----------
Experiment: yeast AGP1-GFP level changes, GLN3 branch – cell-based, multiplex flow cytometry, S. cerevisiae, primary screen (AID 1887);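 note: AGP1-GFP fusion strain of S. cerevisiae within a five-strain barcoded multiplex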
Conditions: 3 h, at 10 µM, hits give high values
Results filed as inconclusive are left out. Activity calls are given as the source filed them.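 Rule for the calls: active = GFP signal above the screen-wide mean plus 3 SD, that is over about 124.5% of the solvent control; inconclusive = no reading because the compound's own fluorescence disturbed strain identification; inactive = the rest.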
Measured GFP response, % of DMSO, listed per entry for reference.

Task: What does the data say about its GFP response, % of DMSO? Entry: C=CCC1(O)C(=O)N2C(=C1C(=O)N1CCOCC1)c1ccccc1CC2(C)C (stereo not given)
Result: 99.9% (inactive)

Task: What value of measured GFP response, % of DMSO is listed for COc1cccc2c(=O)c(C/C=C(/C)Cl)c(C)[nH]c12 ?
Result: 108% (inactive)

Task: // lookup GFP response, % of DMSO for NNC(=O)c1cc(O)c(O)c(O)c1
Result: 106% (inactive)

Task: GET /values?readout=GFP response, % of DMSO&item= CC(=O)Nc1ccc2[nH]c(C)c(CC=C(Cl)Cl)c(=O)c2c1
Result: 94.8% (inactive)

----------
Test: interference with biotin-avidin bead interaction – biochemical, flow cytometry, bead-based, counter-screen for RGS protein interaction modulators (AID 1783);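 note: median green fluorescence of gated singlet beads compared with DMSO control wells; 0% = DMSO wells and 100% = complete loss of bead fluorescence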
Conditions: streptavidin beads, fluorescein-biotin binding; at 10 µM, hits give high values
Some of the results follow.
inhibition listing for selected molecules.
Numbers only here, please. The scale is %.

Look over these answered cases.
[[record]]
molecule = "FC(F)Oc1ccccc1C1CC(c2ccc(Br)s2)Nc2ncnn21 (stereo not given)"
quantity_unit = "%"
observed_measurement = 2.6

[[record]]
molecule = "CSc1ccc(CN2C(=O)NC3(CCCCCC3)C2=O)cc1"
quantity_unit = "%"
observed_measurement = -1.7

[[record]]
molecule = "CCN(CC)CCn1cnc2c1c(=O)n(CCOC(=O)c1cc(OC)c(OC)c(OC)c1)c(=O)n2C"
quantity_unit = "%"
observed_measurement = -0.6

[[record]]
molecule = "CC1(C)C=C2[C@H]3CC[C@@H]4[C@@]5(C)CCC(=O)C(C)(C)[C@@H]5CC[C@@]4(C)[C@]3(C)CC[C@@]2(C(=O)O)CC1"
quantity_unit = "%"
observed_measurement = 0.1

[[record]]
molecule = "Oc1ccc(-c2onc3ccc(Cl)cc23)cc1"
quantity_unit = "%"
observed_measurement = 0

[[record]]
molecule = "CN(C)CCNC(=O)/C(=C/c1cccc([N+](=O)[O-])c1)NC(=O)c1ccccc1"
quantity_unit = "%"
observed_measurement = -1.3


Task: Which inhibition value is on record for C=CCn1c(=NC(=O)c2cccs2)sc2cc(NC(C)=O)ccc21 ?
Result: -1.6

Task: Requested field: inhibition. Item: Cc1cc(C)nc(/N=C2\NC(=O)CC(C(=O)O)N2c2ccc(Cl)cc2Cl)n1 (stereo not given)
Result: 0.1

Task: So what does the record say about inhibition for CCOC(=O)CCP(=O)(O)C(O)(c1ccccc1)c1ccccc1 ?
Result: 2.2

Task: Find the recorded inhibition belonging to CCOC(=O)C1=C(c2ccccc2)N=C2SCC(=O)N2C1c1ccc(O)c(OC)c1 (stereo not given) and report it.
Result: 0
